meta.source: patent US20230295324A1

target or test system: T1, human OX40 protein (Acro biosystem, #OX0-H5224) (human, UniProt P43489 29-216)
T1 construct: Bought recombinant protein
T1 sequence (looked up): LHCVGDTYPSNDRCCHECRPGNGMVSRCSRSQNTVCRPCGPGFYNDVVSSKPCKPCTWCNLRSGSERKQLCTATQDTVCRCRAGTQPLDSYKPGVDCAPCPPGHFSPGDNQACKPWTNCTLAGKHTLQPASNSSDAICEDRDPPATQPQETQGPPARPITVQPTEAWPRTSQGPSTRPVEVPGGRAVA
procedure details: BLI, antibody on ProA sensor, 1:1 global fit
Here, each record is paired with measured Kd data.
measure: Kd

| binder | test result |
| --- | --- |
| PR002067 (antibody, human IgG1, V domains shown, no light chain; also called anti-OX40 HCAb antibody) VH: EVQLLESGGGLVQPGGSLRLSCAASGFTFSSYAMSWVRQAPGKGLEWVSAISGRGGSTFYADSVRGRFTISRDNSKNTLYLQMNSLRAEDTAMYYCVDGTTGTTDVDYWGQGTLVTVSS | 4.16 nM |
| PR002065 (antibody, human IgG1, V domains shown, no light chain; also called anti-OX40 HCAb antibody) VH: EVQLVESGGGLVQPGGSLRLSCAASGFTFSSYAMSWVRQAPGKGLEWVSAISGRGDITFYADSVRGRFTISRDNSKNTLYLQMNSLRAEDTALYYCANGMTGSTDVDFWGQGTLVTVSS | 6.79 nM |
| PR002066 (antibody, human IgG1, V domains shown, no light chain; also called anti-OX40 HCAb antibody) VH: EVQLLESGGGLVQPGGSLRLSCIASGFTFSSYAMSWVRQAPGKGLEWVSAISGRGGSTFYADSVRGRFTISRDNSKNTLYLQMNSLRAEDTAVYYCANGMTGTTDVDYWGQGTQVTVSS | 8.71 nM |
| PR002077 (antibody, human IgG1, V domains shown, no light chain; also called anti-OX40 HCAb antibody) VH: EVQLLESGGGLVQPGGSLRLSCAASGFTFSSYAMSWVRQAPGKGLEWVSAISGRGNITFYADSVRGRFTISRDNSKNTLYLQMNSLRAEDTAVYYCANGITGTTDVDYWGQGTLVTVSS | 10.6 nM |
| PR002063 (antibody, human IgG1, V domains shown, no light chain; also called anti-OX40 HCAb antibody) VH: EVQLLESGGGLVQPGGSLRLSCAASGFTFSSYAMSWVRQAPGRGLEWVSAISGGGGSTFYADSVRGRFTISRDNSKNTLYLQMSSLRAEDTAVYYCANGMTGTTDVDYWGQGTRVTVSS | 13 nM |
